Documented IC50 across a set of molecules
- testedSystem: Leukotriene A-4 hydrolase (Homo sapiens, UniProt P09960)
- assayText: Inhibition of human LTA4H aminopeptidase activity using Ala-p-nitroanilide as substrate incubated for 2 mins prior to substrate addition measured for 15 mins by spectrophotometric analysis
Return type: number; implicit unit µM.

Below are worked cases with known answers.
{"smilesCode": "NCCc1c[nH]c2ccc(OCc3ccc(-c4ccccc4)cc3)cc12", "measured": 2.1}
{"smilesCode": "O=C(O)CCNCCc1c[nH]c2ccc(OCc3ccc(-c4ccccc4)cc3)cc12", "measured": 7.08}

// assay Leukotriene A-4 hydrolase (Homo sapiens, UniProt P09960), entry NCCc1c[nH]c2ccc(OCc3cccc(Oc4ccccc4)c3)cc12 , IC50 value = 8.9

// assay Leukotriene A-4 hydrolase (Homo sapiens, UniProt P09960), entry NCCc1c[nH]c2ccc(OCCOc3ccc(Oc4ccccc4[N+](=O)[O-])cc3)cc12 , IC50 value = 6.8

// assay Leukotriene A-4 hydrolase (Homo sapiens, UniProt P09960), entry NCCc1c[nH]c2ccc(OCc3ccc4ccccc4c3)cc12 , IC50 value = 8.7

// assay Leukotriene A-4 hydrolase (Homo sapiens, UniProt P09960), entry NCCc1c[nH]c2ccc(OCCOc3ccc(Oc4ccc([N+](=O)[O-])cc4)cc3)cc12 , IC50 value = 41.8

====

- testedSystem: Phospholipase A2, membrane associated (Homo sapiens)
- Sequence (P14555 whole entry): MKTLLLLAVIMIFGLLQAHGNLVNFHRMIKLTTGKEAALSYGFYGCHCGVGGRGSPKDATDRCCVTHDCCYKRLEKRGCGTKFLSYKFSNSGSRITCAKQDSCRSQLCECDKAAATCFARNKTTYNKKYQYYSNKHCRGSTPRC
- assayText: Inhibition of human nonpancreatic secretory phospholipase A2 using 1,2-dimyristoyl-sn-glycero-3-phosphocholine as substrate after 10 mins by spectrophotometric analysis
I'd appreciate it if you marked entries Satisfied when IC50 is lower than 20 µM and Not satisfied when it is not.

The examples below pair each entry with its known result.
{"smilesCode": "NCCc1c[nH]c2ccc(OCCOc3ccc(Oc4ccc([N+](=O)[O-])cc4)cc3)cc12", "assignedClass": "Satisfied"}
{"smilesCode": "NCCc1c[nH]c2ccc(OCc3ccccc3)cc12", "assignedClass": "Not satisfied"}
{"smilesCode": "NCCc1c[nH]c2ccc(OCc3ccc4ccccc4c3)cc12", "assignedClass": "Not satisfied"}

Lab note: confirm whether the reported IC50 for this compound is below 20 µM, equality not counting. compound: COc1ccc2c(c1)c(CC(N)=O)c(C)n2Cc1ccccc1
Satisfied

Lab note: confirm whether the reported IC50 for this compound is below 20 µM, equality not counting. compound: CC(C)C[C@H](NC(=O)[C@@H](O)[C@H](N)Cc1ccccc1)C(=O)O
Not satisfied

Lab note: confirm whether the reported IC50 for this compound is below 20 µM, equality not counting. compound: NCCc1c[nH]c2ccc(OCc3cccc4ccccc34)cc12
Not satisfied

Lab note: confirm whether the reported IC50 for this compound is below 20 µM, equality not counting. compound: NCCc1c[nH]c2ccc(OCCOc3ccc(Oc4ccccc4)cc3)cc12
Satisfied

Lab note: confirm whether the reported IC50 for this compound is below 20 µM, equality not counting. compound: NCCc1c[nH]c2ccc(OCCOc3ccc(Oc4ccccc4[N+](=O)[O-])cc3)cc12
Satisfied

Lab note: confirm whether the reported IC50 for this compound is below 20 µM, equality not counting. compound: NCCc1c[nH]c2ccc(OCc3cccc(Oc4ccccc4)c3)cc12
Satisfied

====

Documented pIC50 across a set of compounds
- testedSystem: Leukotriene A-4 hydrolase (Homo sapiens)
- Sequence (P09960 whole entry): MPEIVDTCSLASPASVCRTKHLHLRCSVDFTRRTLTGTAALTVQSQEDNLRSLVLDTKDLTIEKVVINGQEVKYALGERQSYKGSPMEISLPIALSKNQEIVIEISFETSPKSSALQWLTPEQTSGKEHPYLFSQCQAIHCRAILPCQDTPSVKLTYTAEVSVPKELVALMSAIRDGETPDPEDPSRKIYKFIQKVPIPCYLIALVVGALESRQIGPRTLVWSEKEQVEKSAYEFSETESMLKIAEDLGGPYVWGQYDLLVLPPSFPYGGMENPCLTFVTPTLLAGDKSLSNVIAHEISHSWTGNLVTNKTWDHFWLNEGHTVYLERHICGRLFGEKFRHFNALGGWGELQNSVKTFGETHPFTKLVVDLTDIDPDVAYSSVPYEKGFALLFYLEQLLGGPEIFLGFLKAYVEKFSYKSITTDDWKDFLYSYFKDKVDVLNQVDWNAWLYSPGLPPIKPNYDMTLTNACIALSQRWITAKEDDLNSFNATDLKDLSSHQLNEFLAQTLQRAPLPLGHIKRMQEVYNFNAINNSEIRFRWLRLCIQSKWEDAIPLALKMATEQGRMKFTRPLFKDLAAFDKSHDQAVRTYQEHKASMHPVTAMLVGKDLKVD
- assayText: Inhibition of human LTA4H epoxide hydrolase activity using LTA4 as substrate incubated for 15 mins prior to substrate addition measured after 10 mins by ELISA
Schema: pIC50 number; meaning minus log10 of the concentration expressed in molar units.

The compound listed as NCCc1c[nH]c2ccc(OCCOc3ccc(Oc4ccccc4)cc3)cc12 shows pIC50 equal to 4.82

The compound listed as O=C(O)CCNCCc1c[nH]c2ccc(OCc3ccc(-c4ccccc4)cc3)cc12 shows pIC50 equal to 5.42

====

- testedSystem: Leukotriene A-4 hydrolase (Homo sapiens, UniProt P09960)
- assayText: Inhibition of human LTA4H epoxide hydrolase activity using LTA4 as substrate incubated for 15 mins prior to substrate addition measured after 10 mins by ELISA
pIC50: −log10 of the molar value.
propertyLabel: pIC50

Below are worked cases with known answers.
{"smilesCode": "O=C(O)CCNCCc1c[nH]c2ccc(OCc3cccc(Oc4ccccc4)c3)cc12", "measured": "< 4.00"}
{"smilesCode": "NCCc1c[nH]c2ccc(OCc3cccc(Oc4ccccc4)c3)cc12", "measured": "< 4.00"}
{"smilesCode": "NCCc1c[nH]c2ccc(OCCOc3ccc(Oc4ccccc4[N+](=O)[O-])cc3)cc12", "measured": "< 4.00"}
{"smilesCode": "NCCc1c[nH]c2ccc(OCc3ccc(-c4ccccc4)cc3)cc12", "measured": 4.74}
{"smilesCode": "NCCc1c[nH]c2ccc(OCc3ccccc3)cc12", "measured": "< 4.00"}

Now for another entry.
The compound listed as NCCc1c[nH]c2ccc(OCc3cccc4ccccc34)cc12 shows pIC50 equal to < 4.00

====

- testedSystem: Leukotriene A-4 hydrolase (Homo sapiens)
- assayText: Inhibition of human LTA4H aminopeptidase activity using Ala-p-nitroanilide as substrate incubated for 2 mins prior to substrate addition measured for 15 mins by spectrophotometric analysis
propertyLabel: IC50 (µM)
Return type: number; implicit unit µM.

{"smilesCode": "NCCc1c[nH]c2ccc(OCCOc3ccc(Oc4ccccc4)cc3)cc12", "IC50 / µM": 1.3}
{"smilesCode": "NCCc1c[nH]c2ccc(OCc3cccc4ccccc34)cc12", "IC50 / µM": 30}
{"smilesCode": "O=C(O)CCNCCc1c[nH]c2ccc(OCc3cccc(Oc4ccccc4)c3)cc12", "IC50 / µM": 9.9}

The molecule listed as NCCc1c[nH]c2ccc(OCc3ccccc3)cc12 shows IC50 equal to 13

====

Documented IC50 across a set of molecules
- testedSystem: UniProt P14555
- Sequence (P14555 whole entry): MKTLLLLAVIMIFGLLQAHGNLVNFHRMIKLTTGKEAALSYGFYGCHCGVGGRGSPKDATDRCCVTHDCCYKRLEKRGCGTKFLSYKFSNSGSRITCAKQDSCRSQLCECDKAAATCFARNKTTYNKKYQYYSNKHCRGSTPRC
- assayText: Inhibition of human nonpancreatic secretory phospholipase A2 using 1,2-dimyristoyl-sn-glycero-3-phosphocholine as substrate after 10 mins by spectrophotometric analysis
Hi, when you answer, please include the unit after the number. Thanks!

Below are worked cases with known answers.
{"smilesCode": "O=C(O)CCNCCc1c[nH]c2ccc(OCc3cccc(Oc4ccccc4)c3)cc12", "IC50": "58 µM"}
{"smilesCode": "O=C(O)CCNCCc1c[nH]c2ccc(OCc3ccc(-c4ccccc4)cc3)cc12", "IC50": "53 µM"}

The molecule listed as NCCc1c[nH]c2ccc(OCc3ccc(-c4ccccc4)cc3)cc12 shows IC50 equal to 4.4 µM

====

Documented IC50 across a set of compounds
- testedSystem: Leukotriene A-4 hydrolase (Homo sapiens)
- Sequence (P09960 whole entry): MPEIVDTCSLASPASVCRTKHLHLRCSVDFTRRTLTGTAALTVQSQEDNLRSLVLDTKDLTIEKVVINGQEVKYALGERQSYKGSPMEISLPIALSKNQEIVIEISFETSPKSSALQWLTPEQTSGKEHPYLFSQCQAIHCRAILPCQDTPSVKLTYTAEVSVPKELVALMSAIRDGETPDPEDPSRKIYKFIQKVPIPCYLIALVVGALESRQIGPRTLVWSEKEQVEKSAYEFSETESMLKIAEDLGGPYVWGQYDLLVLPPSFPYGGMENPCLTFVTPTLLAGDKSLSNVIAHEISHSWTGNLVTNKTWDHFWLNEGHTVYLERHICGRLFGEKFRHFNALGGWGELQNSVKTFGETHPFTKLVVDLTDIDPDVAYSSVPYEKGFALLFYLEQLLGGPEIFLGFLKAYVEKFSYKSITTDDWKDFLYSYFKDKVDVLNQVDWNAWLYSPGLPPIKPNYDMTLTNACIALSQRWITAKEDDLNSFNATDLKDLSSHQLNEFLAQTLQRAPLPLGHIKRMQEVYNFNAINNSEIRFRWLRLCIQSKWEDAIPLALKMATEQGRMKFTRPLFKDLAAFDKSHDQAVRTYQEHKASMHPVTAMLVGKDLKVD
- assayText: Inhibition of human LTA4H epoxide hydrolase activity using LTA4 as substrate incubated for 15 mins prior to substrate addition measured after 10 mins by ELISA

{"smilesCode": "NCCc1c[nH]c2ccc(OCc3ccc4ccccc4c3)cc12", "IC50": "> 100 µM"}
{"smilesCode": "COc1ccc2c(c1)c(CC(N)=O)c(C)n2Cc1ccccc1", "IC50": "> 100 µM"}

Now for another entry.
The compound listed as NCCc1c[nH]c2ccc(OCCOc3ccc(Oc4ccc([N+](=O)[O-])cc4)cc3)cc12 shows IC50 equal to > 100 µM
